Origin of measurements: PubChem BioAssay AID1963960

Test system: MDA-MB-468 spheroids with HUVEC/MSC, viability
assay: Anticancer human tumor MDA-MB-468 cell line growth inhibition [PI3K];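 further: spheroids exposed to agents for seven days before readout; 100% = DMSO vehicle control viability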
particulars: second compound 0.0316 µM; first compound 0.03 µM; active compounds read low
parameter: viability, T/C (%)
Give the number; % is assumed, so skip it.

Record Cn1cnc2c(F)c(Nc3ccc(Br)cc3Cl)c(C(=O)NOCCO)cc21 + Cc1nc(NC(=O)N2CCCC2C(N)=O)sc1-c1ccnc(C(C)(C)C(F)(F)F)c1 / MDA-MB-468 spheroids with HUVEC/MSC, viability, viability, T/C recorded as 80

Reported MDA-MB-468 spheroids with HUVEC/MSC, viability viability, T/C for item Cn1cnc2c(F)c(Nc3ccc(Br)cc3Cl)c(C(=O)NOCCO)cc21 + COc1c(OCCCN2CCOCC2)ccc2c3n(c(=NC(=O)c4cnc(N)nc4)nc12)CCN3 was 69.7

For Cn1cnc2c(F)c(Nc3ccc(Br)cc3Cl)c(C(=O)NOCCO)cc21 + CC(Nc1ncnc2nc[nH]c12)c1cc2cccc(Cl)c2c(=O)n1-c1ccccc1 on MDA-MB-468 spheroids with HUVEC/MSC, viability, measured viability, T/C was 90

Reported MDA-MB-468 spheroids with HUVEC/MSC, viability viability, T/C for item Cn1cnc2c(F)c(Nc3ccc(Br)cc3Cl)c(C(=O)NOCCO)cc21 + CC(Nc1ccc2c(c1)OCCn1cc(N3C(=O)OCC3C(F)F)nc1-2)C(N)=O was 86.4

* * *

System: MDA-MB-468 spheroids with HUVEC/MSC, viability
assay: Anticancer human tumor MDA-MB-468 cell line growth inhibition [PI3K];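 further: spheroids exposed to agents for seven days before readout; 100% = DMSO vehicle control viability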
particulars: second compound 0.1 µM; first compound 3.16 µM; active compounds read low
parameter: viability, T/C

Looking up CC(C)NCC(C(=O)N1CCN(c2ncnc3c2C(C)CC3O)CC1)c1ccc(Cl)cc1 (stereo not given) + CC(Nc1ccc2c(c1)OCCn1cc(N3C(=O)OCC3C(F)F)nc1-2)C(N)=O , I see its viability, T/C listed as 24.3%

Data point: C#Cc1c(F)ccc2cc(O)cc(-c3ncc4c(N5CC6CCC(C5)N6)nc(OCC56CCCN5CC(F)C6)nc4c3F)c12 (stereo not given) + CC(Nc1ccc2c(c1)OCCn1cc(N3C(=O)OCC3C(F)F)nc1-2)C(N)=O ; viability, T/C = 73.9%

compound C=CC(=O)N1CCN(c2nc(=O)n(-c3c(C)ccnc3C(C)C)c3nc(-c4c(O)cccc4F)c(F)cc23)C(C)C1 (stereo not given) + COc1c(OCCCN2CCOCC2)ccc2c3n(c(=NC(=O)c4cnc(N)nc4)nc12)CCN3 , viability, T/C observed: 61.5%

Input C=CC(=O)N1CCN(c2nc(=O)n(-c3c(C)ccnc3C(C)C)c3nc(-c4c(O)cccc4F)c(F)cc23)C(C)C1 (stereo not given) + CC(Nc1ccc2c(c1)OCCn1cc(N3C(=O)OCC3C(F)F)nc1-2)C(N)=O . Output viability, T/C: 86%

Form: compound = CCCS(=O)(=O)Nc1ccc(F)c(C(=O)c2c[nH]c3ncc(-c4ccc(Cl)cc4)cc23)c1F + CC(Nc1ncnc2nc[nH]c12)c1cc2cccc(Cl)c2c(=O)n1-c1ccccc1 ; viability, T/C = 58.1%

* * *

Test system: MDA-MB-468 spheroids with HUVEC/MSC, viability
assay: Anticancer human tumor MDA-MB-468 cell line growth inhibition [PI3K];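 further: spheroids exposed to agents for seven days before readout; 100% = DMSO vehicle control viability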
particulars: second compound 0.0316 µM; first compound 0.001 µM; active compounds read low
Field: viability, T/C. Provide a value for each of the compounds that follow.
Field format: number, assumed %, no unit text.

Summary for this compound, CC(=O)c1c(C)c2cnc(Nc3ccc(N4CCNCC4)cn3)nc2n(C2CCCC2)c1=O + COc1c(OCCCN2CCOCC2)ccc2c3n(c(=NC(=O)c4cnc(N)nc4)nc12)CCN3 : viability, T/C is 67.5

Measured viability, T/C, CC(C)n1nc(-c2ccc3oc(N)nc3c2)c2c(N)ncnc21 + CC(Nc1ncnc2nc[nH]c12)c1cc2cccc(Cl)c2c(=O)n1-c1ccccc1 : 81.4

According to the records, this compound CC(=O)c1c(C)c2cnc(Nc3ccc(N4CCNCC4)cn3)nc2n(C2CCCC2)c1=O + Cc1nc(NC(=O)N2CCCC2C(N)=O)sc1-c1ccnc(C(C)(C)C(F)(F)F)c1 displays viability, T/C of 92.1
